Value source: ChEMBL document CHEMBL4334515

System: RAW264.7
assay-info: Cytotoxicity against mouse RAW264.7 cells assessed as effect on cell viability at 10 uM by CCK-8 assay
Type: cell-based
stated-conditions: raw264.7, 10 µM

| molecule | Activity |
| --- | --- |
| COc1cc(C[C@@H](C)[C@@H](C)Cc2ccc(O)c(OC)c2)ccc1O [MESODIHYDROGUAIARETIC ACID] | Non-Toxic |
| COC/C=C/c1cc(OC)c(O[C@@H](C)[C@@H](O)c2cc(OC)c3c(c2)OCO3)c(OC)c1 | Non-Toxic |
| CC(C(=O)c1ccc2c(c1)OCO2)[C@H](C)Cc1ccc2c(c1)OCO2 (stereo partly drawn) | Non-Toxic |
